The measured values listed here are drawn from the supplement of paper PMC10037445.

# System: RAW-Dual
# assay_comment: NF-kB SEAP reporter activity, fold change vs agonist alone; cytotoxicity flag (confluency mask): not cytotoxic; library stock concentration (final ~1000-fold dilution): 10 mM; higher = enhanced NF-kB activity
# test_settings: agonist: LPS (TLR4) 0.1 ug/mL
In all, about 2,900 compounds were measured (“NF-kB SEAP reporter activity, fold change vs agonist alone”: median about 0.99, highest 2% from about 2.6 on). For the sample, the highest values were picked, then their nearest neighbours and some compounds at random.
Tag: Y if measured NF-kB SEAP reporter activity is not below 1, N if it is.

Reference set (5 entries):
CCCCCCC[n+]1ccc(-c2cc[n+](CCCCCCC)cc2)cc1; Y
O=c1[nH]c2ccccc2n1C1CCN(Cc2ccc(-c3nc4cc5nc[nH]c5cc4nc3-c3ccccc3)cc2)CC1; Y
CC[N+](C)(CC)CCOC(=O)C(O)(c1ccccc1)c1ccccc1; N
CCC1=CC2CN3CCc4c([nH]c5ccccc45)C(C(=O)OC)(C2)C13 (stereo not given); Y
COc1ccc2c(c[n+](C)c3c4cc5c(cc4ccc23)OCO5)c1OC.Cl; N

Consider now this further compound.
[ask] NF-kB SEAP reporter activity >= 1 for `CN1C2CCC1CC(=O)C2` ?
[reply] N

----------
Provide the reported NF-kB SEAP reporter activity of each item.
# System: RAW-Dual
# assay_comment: NF-kB SEAP reporter activity, fold change vs agonist alone; cytotoxicity flag (confluency mask): cytotoxic (confluency <70% of control); library stock concentration (final ~1000-fold dilution): 10 mM; higher = enhanced NF-kB activity
# test_settings: agonist: ODN 1826 (TLR9) 0.5 ug/mL
The full ranking holds about 2,900 compounds; the median of “NF-kB SEAP reporter activity, fold change vs agonist alone” is about 0.99, and the highest 2% start at about 2.6. Only a selection was taken, and the highest values are over-represented in it overall.
One number for each entry.

These solved cases illustrate the format of a correct answer.
Nc1ncnc2c1ccn2C1OC(CO)C(O)C1O (centres undefined); 0.19
CN1C(=O)C23CC4(C56CC78SSC(CO)(C(=O)N7C5Nc5ccccc56)N(C)C8=O)c5ccccc5NC4N2C(=O)C1(CO)SS3 (centres undefined); 0.141
CC(C)(C)c1cc(C=C(C#N)C#N)cc(C(C)(C)C)c1O; 1.32

Each compound below has a reported value. Please supply its NF-kB SEAP reporter activity.
1. CCc1c2c(nc3ccccc13)-c1cc3c(c(=O)n1C2)COC(=O)C3(O)CC (centres undefined)
2. COc1cc(C2c3cc4c(cc3C(O)C3COC(=O)C23)OCO4)cc(OC)c1OC (centres undefined)
3. Cn1c(CCCCCCC(=O)NO)nc2cc(N(CCCl)CCCl)ccc21
4. CN1Cc2c(ccc3c2OCO3)C2C(O)Cc3cc4c(cc3C21)OCO4 (centres undefined)
5. CC(C)(C)c1cc(C=C(C#N)C#N)cc(Br)c1O

[reply]
2.29
2.81
1.5
1.75
1.29

[ask] Look up NF-kB SEAP reporter activity: COc1ccc(CC2NCC(O)C2OC(C)=O)cc1 (centres undefined)
[reply] 0.171

----------
Record form. Attribute: NF-kB SEAP reporter activity. Fill in for each entry.
# Tested on: RAW-Dual
# assay_comment: NF-kB SEAP reporter activity, fold change vs agonist alone; cytotoxicity flag (confluency mask): not cytotoxic; library stock concentration (final ~1000-fold dilution): 10 mM; higher = enhanced NF-kB activity
# test_settings: agonist: Pam3CSK4 (TLR2/1) 0.1 ug/mL
In all, about 2,900 compounds were measured (“NF-kB SEAP reporter activity, fold change vs agonist alone”: median about 0.99, highest 2% from about 2.6 on). The entries come from a sample that favours the highest values as a whole.

CN1C2CC(OC(=O)C(CO)c3ccccc3)CC1C1OC12 (stereo not drawn); 1.58

For each of the compounds below, note its NF-kB SEAP reporter activity.
1. CCC1CN2CCC3(C(=O)Nc4ccccc43)C2CC1/C(=C\OC)C(=O)OC (stereo not drawn)
2. CC12NC(Cc3ccccc31)c1ccccc12.O=C(O)/C=C\C(=O)O (stereo not drawn)

[reply]
1: 0.852; 2: 1.15

----------
What NF-kB SEAP reporter activity was measured for each of the following?
# Tested on: RAW-Dual
# assay_comment: NF-kB SEAP reporter activity, fold change vs agonist alone; cytotoxicity flag (confluency mask): not cytotoxic; library stock concentration (final ~1000-fold dilution): 10 mM; higher = enhanced NF-kB activity
# test_settings: agonist: Pam2CSK4 (TLR2/6) 0.1 ug/mL
Whole data set: some 2,900 compounds, median “NF-kB SEAP reporter activity, fold change vs agonist alone” near 0.99, cut for the highest 2% near 2.6. The list comes from a sample in which the highest values are over-represented; it also holds close analogues and randomly drawn compounds.
Answers are plain numbers.

CC12NC(Cc3ccccc31)c1ccccc12.O=C(O)/C=C\C(=O)O (configuration not stated); 1.13
CN1C2CCC1CC(=O)C2; 1
CC[C@H]1CN2CC[C@]3(C(=O)Nc4ccccc43)[C@@H]2C[C@@H]1/C(=C\OC)C(=O)OC; 0.949

// each compound listed below needs its NF-kB SEAP reporter activity
1. Cl[Te]1(Cl)(Cl)OCCO1.N
2. O.O=C1C=CCC2C3CCCN4CCCC(CN12)C34 (configuration not stated)
3. COc1cc(C)[nH]c(=O)c1CNC(=O)c1c(C)n(C(C)C2CCOCC2)c2ccccc12 (configuration not stated)
4. COc1cc(-n2c(S)nc3ccccc3c2=O)c(Cl)cc1Cl
5. C=CC1CN2CCC3(C(=O)Nc4ccccc43)C2CC1/C(=C\OC)C(=O)OC (configuration not stated)

[reply]
[0.912, 0.957, 0.992, 0.849, 0.882]

Give NF-kB SEAP reporter activity for each of the items listed below.
1. COc1ccc2c(c[n+](C)c3c4cc5c(cc4ccc23)OCO5)c1OC.Cl
2. CC1=CC2Cc3[nH]c(=O)ccc3C3(C1)NCCCC23 (configuration not stated)
3. CC12CCC3C(CCC4=C(O)C(=O)CCC43C)C1CCC2=O (configuration not stated)
4. Br.COc1ccc2c(c1)C13CCCCC1C(C2)N(C)CC3.O (configuration not stated)
5. CN1C2CCC1CC(OC(=O)C(CO)c1ccccc1)C2.CN1C2CCC1CC(OC(=O)C(CO)c1ccccc1)C2.O.O=S(=O)(O)O (configuration not stated)
6. CCC1(c2c[nH]cn2)Cc2ccccc2C1.Cl
7. C=C(C)C1Cc2c(ccc3c2OC2COc4cc(OC)c(OC)cc4C2C3=O)O1 (configuration not stated)

[reply]
0.15
1.11
1.07
0.806
0.79
0.9
1.27

Each compound below has a recorded value; state its NF-kB SEAP reporter activity.
1. CCCCCCC[n+]1ccc(-c2cc[n+](CCCCCCC)cc2)cc1
2. CC(=O)O.Cc1cc2c(C(C)C)c(O)c(O)c(C=O)c2c(O)c1-c1c(C)cc2c(C(C)C)c(O)c(O)c(C=O)c2c1O

[reply]
1.02
1.15

Provide NF-kB SEAP reporter activity for all items below, preserving their order.
1. CCNc1nc(Cl)nc(NC(C)C)n1
2. CC1CCC/C=C/C2CC(O)CC2C(O)/C=C/C(=O)O1 (configuration not stated)
3. N#CC(C#N)=Cc1ccc(O)c(O)c1
4. CCNC(=O)CC1N=C(c2ccc(Cl)cc2)c2cc(OC)ccc2-n2c(C)nnc21 (configuration not stated)

[reply]
[1.5, 0.209, 0.821, 0.886]

[ask] Lab request: please report NF-kB SEAP reporter activity under test system RAW-Dual for Cc1sc2c(c1C)C(c1ccc(Cl)cc1)=NC(CC(N)=O)c1nnc(C)n1-2 (configuration not stated)
[reply] 0.734

----------
# System: RAW-Dual
# assay_comment: NF-kB SEAP reporter activity, fold change vs agonist alone; higher = enhanced NF-kB activity
# test_settings: library stock concentration (final ~1000-fold dilution): 10 mM; cytotoxicity flag (confluency mask): not cytotoxic; agonist: Imiquimod (TLR7) […]
The full ranking holds about 2,900 compounds; the median of “NF-kB SEAP reporter activity, fold change vs agonist alone” is about 0.99, and the highest 2% start at about 2.6. The full list was thinned out, with the highest values kept by preference.
Decision: NF-kB SEAP reporter activity >= 0.9 yields True, all other cases yield False.

CC1CCC/C=C/C2CC(O)CC2C(O)/C=C/C(=O)O1 (stereo not given); True

[ask] Quick check, NF-kB SEAP reporter activity >= 0.9? CCC1=CC2CN3CCc4c([nH]c5ccccc45)C(C(=O)OC)(C2)C13 (stereo not given)
[reply] True

----------
# Test system: RAW-Dual
# assay_comment: NF-kB SEAP reporter activity, fold change vs agonist alone; cytotoxicity flag (confluency mask): not cytotoxic; library stock concentration (final ~1000-fold dilution): 10 mM; higher = enhanced NF-kB activity
# test_settings: agonist: LPS (TLR4) 0.1 ug/mL
Over roughly 2,900 compounds, “NF-kB SEAP reporter activity, fold change vs agonist alone” has its median near 0.99; the highest 2% begin near 2.6. What follows is part of a selection rich in the highest values, with near analogues and random picks from the rest.
observed_property: NF-kB SEAP reporter activity
Answers are plain numbers.

Here are 8 compounds together with their reported answers.
COc1cc(-n2c(S)nc3ccccc3c2=O)c(Cl)cc1Cl; 1.4
O=C(O)CCCc1ccc(N(CCCl)CCCl)cc1; 0.89
CC12CCC3C(CCC4=C(O)C(=O)CCC43C)C1CCC2=O (stereo unspecified); 1.17
Br.COc1ccc2c(c1)C13CCCCC1C(C2)N(C)CC3.O (stereo unspecified); 0.802
CC12NC(Cc3ccccc31)c1ccccc12.O=C(O)/C=C\C(=O)O (stereo unspecified); 1.25
Cl.O=C(O)Cc1c[nH]cn1; 1.34
Cl.NCCc1ccc(S(=O)(=O)F)cc1; 1.6
COc1cc(C)[nH]c(=O)c1CNC(=O)c1c(C)n(C(C)C2CCOCC2)c2ccccc12 (stereo unspecified); 1.26

Here are 3 compounds. What values of NF-kB SEAP reporter activity were reported for them?
1. CC1CCC/C=C/C2CC(O)CC2C(O)/C=C/C(=O)O1 (stereo unspecified)
2. CN1C2CCC1CC(OC(=O)C(CO)c1ccccc1)C2.CN1C2CCC1CC(OC(=O)C(CO)c1ccccc1)C2.O.O=S(=O)(O)O (stereo unspecified)
3. COC1=CC2C3Cc4ccc(OC)c(O)c4C2(CCN3C)CC1=O.Cl (stereo unspecified)

[reply]
[0.305, 0.923, 0.877]
